system: CH58TF infected primary CD4+ T-cells; test: HIV+ patient sera/plasma recognition of CH58TF infected primary CD4+ T-cells (flow cytometry cell-surface staining); type: cell-based, HIV-1; details: Human immunodeficiency virus 1, T-cell, read-out: Fold Over DMSO (patient sera, n = 3)
Below: a set of entries, each annotated with reported fold induction at 50 µM.
PARAMETER: fold induction at 50 µM

>>> print(df.to_string())
                                   compound                parameter  reported_result
0  Cn1cnc(S(=O)(=O)N2CCCC(C(=O)Nc3ccc(Cl)c(F)c3)C2)c1 (centres unmarked) [MCG-III-157-B04]  fold induction at 50 µM              2.4
1  CS(=O)(=O)N1CCC[C@H](C(=O)Oc2ccc(Cl)c(F)c2)C1 [(S)-MCG-III-213-A01]  fold induction at 50 µM             1.08
2  O=C(Nc1ccc(Cl)c(F)c1)C1CNCCN1 (centres unmarked) [MCG-III-216-A01]  fold induction at 50 µM            0.999
3  CS(=O)(=O)N1CCOC(C(=O)Nc2ccc(Cl)c(F)c2)C1 (centres unmarked) [MCG-III-211-A01]  fold induction at 50 µM             1.47
4  O=C(Nc1ccc(Cl)c(F)c1)C1Cc2ccccc2N(S(=O)(=O)c2ccccc2)C1 (centres unmarked) [MCG-III-214-A03]  fold induction at 50 µM             1.05
5  COc1ccccc1NC(=O)[C@H]1CCCN(S(C)(=O)=O)C1 [(S)-MCG-III-027-C05]  fold induction at 50 µM             1.76
6  CS(=O)(=O)N1CC(C(=O)Nc2ccc(Cl)c(F)c2)Cc2ccccc21 (centres unmarked) [MCG-III-214-A01]  fold induction at 50 µM             1.29
7  Cn1cnc(S(=O)(=O)N2CCC[C@H](C(=O)Oc3ccc(Cl)c(F)c3)C2)c1 [(S)-MCG-III-213-A04]  fold induction at 50 µM             1.07

====

test system: CH58TF infected primary CD4+ T-cells; assay: HIV+ patient sera/plasma recognition of CH58TF infected primary CD4+ T-cells (flow cytometry cell-surface staining); assay type: cell-based, HIV-1; details: Human immunodeficiency virus 1, T-cell, read-out: Fold Over DMSO (patient sera, n = 3)
PARAMETER: fold induction at 50 µM

>>> df
                                   compound                parameter  reported_result
0  CCS(=O)(=O)N1CCNC(C(=O)Nc2ccc(Cl)c(F)c2)C1 (stereo not drawn) [MCG-III-212-A02]  fold induction at 50 µM             1.85
1  O=C(Nc1ccc(Cl)c(F)c1)C1CCN(S(=O)(=O)c2ccccc2)C1 (stereo not drawn) [MCG-III-157-A03]  fold induction at 50 µM             1.57
2  CS(=O)(=O)N1CCC[C@H](C(=O)Nc2ccc(Cl)c(F)c2)C1 [(S)-MCG-III-027-D05]  fold induction at 50 µM             2.83
3  O=C(Nc1ccc(Cl)c(F)c1)[C@H]1CCCN(S(=O)(=O)c2ccc(Br)cc2)C1 [(S)-MCG-III-128]  fold induction at 50 µM             1.07
4  Cn1cnc(S(=O)(=O)N2CCCC(NC(=O)c3ccc(Cl)c(F)c3)C2)c1 (stereo not drawn) [MCG-III-157-C04]  fold induction at 50 µM            0.897
5  CC(=O)Nc1ccc(S(=O)(=O)N2CCC[C@H](C(=O)Nc3ccc(Cl)c(F)c3)C2)cc1 [(S)-MCG-III-117]  fold induction at 50 µM             1.89
6  CCS(=O)(=O)N1CCCC(C(=O)Nc2ccc(Cl)c(F)c2)C1 (stereo not drawn) [MCG-III-157-B02]  fold induction at 50 µM             2.62
7  CS(=O)(=O)N1CCC(C(=O)Nc2ccc(Cl)c(F)c2)C1 (stereo not drawn) [MCG-III-157-A01]  fold induction at 50 µM             1.85
8  CCS(=O)(=O)N1CCC[C@H](C(=O)Nc2ccc(Cl)c(Br)c2)C1 [(S)-MCG-III-085-C05]  fold induction at 50 µM             1.04

====

test system: CH58TF infected primary CD4+ T-cells; test: HIV+ patient sera/plasma recognition of CH58TF infected primary CD4+ T-cells (flow cytometry cell-surface staining); type: cell-based, HIV-1; settings: Human immunodeficiency virus 1, T-cell, read-out: Fold Over DMSO (patient sera, n = 3)
PARAMETER: fold induction at 50 µM

                                    compound  reported_result
 0  CS(=O)(=O)N1CCCC(C(=O)Nc2ccc(Cl)c(F)c2)C1 (centres unmarked) [MCG-III-157-B01]             1.48
 1  CS(=O)(=O)N1CCC[C@H](C(=O)Nc2ccccc2Cl)C1 [(S)-MCG-III-027-C01]             1.06
 2  CS(=O)(=O)N1CCC[C@H](C(=O)Nc2ccc(Cl)c(Cl)c2)C1 [(S)-MCG-III-085-A03]             1.46
 3  CS(=O)(=O)N1CCC[C@H](C(=O)Nc2ccc(Br)c(Cl)c2)C1 [(S)-MCG-III-085-A06]             1.61
 4  Cn1cnc(S(=O)(=O)N2CCNC(C(=O)Nc3ccc(Cl)c(F)c3)C2)c1 (centres unmarked) [MCG-III-216-A04]            0.845
 5  O=C(Nc1ccc(Cl)c(F)c1)[C@H]1CCCN(S(=O)(=O)C(F)(F)F)C1 [(S)-MCG-III-132]             1.58
 6  CCS(=O)(=O)N1CCC[C@H](C(=O)Nc2ccc(Br)c(Cl)c2)C1 [(S)-MCG-III-085-C06]             1.28
 7  CS(=O)(=O)N1CCC[C@H](C(=O)Nc2ccc(F)cc2)C1 [(S)-MCG-III-027-A03]             1.52
 8  CS(=O)(=O)N1CCC[C@H](C(=O)Nc2cccc(F)c2)C1 [(S)-MCG-III-027-B03]             1.44
 9  Cn1cnc(S(=O)(=O)N2CC(C(=O)Nc3ccc(Cl)c(F)c3)Cc3ccccc32)c1 (centres unmarked) [MCG-III-214-A04]            0.924
10  O=C(Nc1ccc(F)c(Cl)c1)[C@H]1CCCN(S(=O)(=O)c2ccccc2)C1 [(S)-MCG-III-085-D02]             1.37
11  CS(=O)(=O)N1CCNC(C(=O)Nc2ccc(Cl)c(F)c2)C1 (centres unmarked) [MCG-III-216-A02]             1.03
12  Cn1cnc(S(=O)(=O)N2CCC(C(=O)Nc3ccc(Cl)c(F)c3)C2)c1 (centres unmarked) [MCG-III-157-A04]             1.28
13  CCS(=O)(=O)N1CCC[C@H](C(=O)Nc2ccc(Cl)c(F)c2)C1 [(S)-MCG-III-085-C01]             3.28
14  CCN1CC(C(=O)Nc2ccc(Cl)c(F)c2)Cc2ccccc21 (centres unmarked) [MCG-III-201]            0.989
15  CS(=O)(=O)N1CCCC(NC(=O)c2ccc(Cl)c(F)c2)C1 (centres unmarked) [MCG-III-157-C01]             1.04
16  CS(=O)(=O)N1CCC[C@H](C(=O)Nc2ccc(Br)cc2)C1 [(S)-MCG-III-027-A02]             2.08

====

test system: CH58TF infected primary CD4+ T-cells; test: HIV+ patient sera/plasma recognition of CH58TF infected primary CD4+ T-cells (flow cytometry cell-surface staining); format: cell-based, HIV-1; conditions: Human immunodeficiency virus 1, T-cell, read-out: Fold Over DMSO (patient sera, n = 3)
PARAMETER: fold induction at 50 µM

In [3]: df
Out[3]:
                                   molecule                parameter  reported_result
0  CS(=O)(=O)N1CCC[C@H](C(=O)Nc2cccc(Cl)c2)C1 [(S)-MCG-III-027-B01]  fold induction at 50 µM             1.37
1  CCS(=O)(=O)N1CCC[C@H](C(=O)Nc2ccc(Cl)c(Cl)c2)C1 [(S)-MCG-III-085-C03]  fold induction at 50 µM             1.65
2  O=C(Nc1ccc(Cl)c(F)c1)C1CCCOC1 (centres unmarked) [MCG-III-207]  fold induction at 50 µM             1.92
3  O=C(Nc1ccc(Cl)c(F)c1)C1CN(S(=O)(=O)c2ccccc2)CCN1 (centres unmarked) [MCG-III-216-A03]  fold induction at 50 µM             1.05
4  CS(=O)(=O)N1CCC[C@H](C(=O)Nc2cccc(Br)c2)C1 [(S)-MCG-III-027-B02]  fold induction at 50 µM             1.62
5  O=C(Nc1ccc(Cl)c(Br)c1)[C@H]1CCCN(S(=O)(=O)c2ccccc2)C1 [(S)-MCG-III-085-D05]  fold induction at 50 µM             1.55
6  O=C(Nc1ccc(Cl)c(F)c1)[C@H]1CCCN(S(=O)(=O)C2CCCCC2)C1 [(S)-MCG-III-116-A03]  fold induction at 50 µM             1.56
7  CS(=O)(=O)N1CCC[C@H](C(=O)Nc2ccc(F)c(F)c2)C1 [(S)-MCG-III-085-A04]  fold induction at 50 µM             1.31
